The measurements presented in this section are drawn from patent US20260297081A1.

# ASSAYED TARGET: CDK4 (Homo sapiens, UniProt P11802+Q16531)
# Sequence (P11802 whole entry): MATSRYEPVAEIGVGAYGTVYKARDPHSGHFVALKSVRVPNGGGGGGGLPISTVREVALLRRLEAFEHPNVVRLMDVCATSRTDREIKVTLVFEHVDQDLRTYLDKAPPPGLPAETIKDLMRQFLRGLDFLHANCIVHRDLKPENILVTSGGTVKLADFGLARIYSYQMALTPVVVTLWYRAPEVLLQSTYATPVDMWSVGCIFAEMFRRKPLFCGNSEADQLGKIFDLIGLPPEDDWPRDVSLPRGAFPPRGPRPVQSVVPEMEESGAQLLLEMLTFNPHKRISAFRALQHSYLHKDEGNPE
# Sequence (P24385 whole entry partner): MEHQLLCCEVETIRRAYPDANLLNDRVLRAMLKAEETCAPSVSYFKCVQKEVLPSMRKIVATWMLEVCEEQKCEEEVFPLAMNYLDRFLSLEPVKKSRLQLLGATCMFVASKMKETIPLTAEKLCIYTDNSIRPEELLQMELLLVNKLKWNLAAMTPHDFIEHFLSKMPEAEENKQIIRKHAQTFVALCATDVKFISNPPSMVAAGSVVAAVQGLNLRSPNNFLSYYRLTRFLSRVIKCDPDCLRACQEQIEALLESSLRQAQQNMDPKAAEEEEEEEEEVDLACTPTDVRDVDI
# Sequence (Q16531 2-1140 limits assumed): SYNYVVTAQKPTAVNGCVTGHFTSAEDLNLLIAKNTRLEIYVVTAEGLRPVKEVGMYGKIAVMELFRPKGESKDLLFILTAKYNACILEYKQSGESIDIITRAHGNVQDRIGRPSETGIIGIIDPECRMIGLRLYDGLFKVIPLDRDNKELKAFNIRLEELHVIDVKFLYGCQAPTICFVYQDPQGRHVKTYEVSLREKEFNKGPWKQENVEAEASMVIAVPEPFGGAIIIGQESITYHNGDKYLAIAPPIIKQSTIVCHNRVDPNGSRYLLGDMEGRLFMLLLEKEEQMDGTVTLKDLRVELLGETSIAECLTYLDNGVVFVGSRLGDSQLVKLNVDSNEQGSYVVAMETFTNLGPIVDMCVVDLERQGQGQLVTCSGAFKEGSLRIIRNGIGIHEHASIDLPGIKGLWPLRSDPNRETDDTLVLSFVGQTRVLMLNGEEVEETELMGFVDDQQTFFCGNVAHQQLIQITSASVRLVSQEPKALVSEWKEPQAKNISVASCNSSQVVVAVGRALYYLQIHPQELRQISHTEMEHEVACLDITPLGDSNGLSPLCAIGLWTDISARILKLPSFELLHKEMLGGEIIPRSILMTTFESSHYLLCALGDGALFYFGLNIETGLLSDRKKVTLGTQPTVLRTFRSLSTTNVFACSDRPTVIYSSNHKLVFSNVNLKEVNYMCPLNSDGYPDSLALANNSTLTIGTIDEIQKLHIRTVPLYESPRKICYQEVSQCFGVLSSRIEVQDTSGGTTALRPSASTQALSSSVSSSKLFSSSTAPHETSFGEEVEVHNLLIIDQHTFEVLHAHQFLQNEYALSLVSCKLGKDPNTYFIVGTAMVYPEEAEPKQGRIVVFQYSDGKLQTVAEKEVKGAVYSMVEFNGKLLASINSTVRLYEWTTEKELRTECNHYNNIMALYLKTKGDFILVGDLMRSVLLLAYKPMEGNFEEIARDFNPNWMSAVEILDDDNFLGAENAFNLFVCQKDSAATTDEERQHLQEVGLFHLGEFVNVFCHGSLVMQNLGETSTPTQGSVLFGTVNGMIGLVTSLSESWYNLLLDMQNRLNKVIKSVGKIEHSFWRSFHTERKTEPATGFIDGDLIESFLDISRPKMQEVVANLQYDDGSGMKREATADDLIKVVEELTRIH
# ASSAY OVERVIEW: HiBiT detection of HiBiT-tagged CDK4 protein level in MCF7 cells, 16 hours (Table 8)
# Assay type: cell-based
# Design: expressed in transfected cells; host or cells: MCF7
# CONDITION LABEL: 10 nM, MCF7 cells stably expressing HiBiT tagged target proteins, read-out: % CDK4 Relative Level (10 nM)
Here, each record is paired with measured activity at 0.01 µM data.

CNc1ccc(C(=O)Nc2ccc(N(C)C)nn2)c(NCCCCCCC(=O)NC2CCC3(CC2)CC(Nc2ncc4ccc(=O)n(C5CCCC5)c4n2)C3)n1 (centres unmarked); > 85%
CNc1ccc(C(=O)Nc2ccc(N(C)C)nn2)c(NCCCCCCNC(=O)CN2CCN(Cc3ccc(Nc4ncc(F)c(-c5cc(F)c6nc(C)n(C(C)C)c6c5)n4)nc3)CC2)n1; > 85%

Input line: So what's the measured activity at 0.01 µM for this one? `CNc1ccc(C(=O)Nc2ccc(N(C)C)nn2)c(NCCOCCC(=O)N2CCN(Cc3ccc(Nc4ncc(F)c(-c5cc(F)c6nc(C)n(C(C)C)c6c5)n4)nc3)CC2)n1`
Output line: > 85%

Input line: So what's the measured activity at 0.01 µM for this one? CC(=O)c1c(C)c2cnc(Nc3ccc(CN4CCN(C(C)C(=O)NC5CC6(C5)CC(Nc5nc(NC(C)C)ccc5C(=O)Nc5ccc(N(C)C)nn5)C6)CC4)cn3)nc2n(C2CCCC2)c1=O (centres unmarked)
Output line: 55 to 85%

Input line: So what's the measured activity at 0.01 µM for this one? CC(=O)c1c(C)c2cnc(Nc3ccc(N4CCN(C5CCN(C(=O)C67CC(Nc8nc(C)ccc8C(=O)Nc8ccc(N(C)C)nn8)(C6)C7)C5)CC4)cn3)nc2n(C2CCCC2)c1=O (centres unmarked)
Output line: 55 to 85%

Input line: So what's the measured activity at 0.01 µM for this one? `CNc1ccc(C(=O)Nc2ccc(N(C)C)nn2)c(NCCCCCCCCNC(=O)CN2CCN(Cc3ccc(Nc4ncc(F)c(-c5cc(F)c6nc(C)n(C(C)C)c6c5)n4)nc3)CC2)n1`
Output line: > 85%

Input line: So what's the measured activity at 0.01 µM for this one? `CNc1ccc(C(=O)Nc2ccc(N(C)C)nn2)c(NCCCCCNC(=O)CN2CCN(c3ccc(Nc4ncc(F)c(-c5cc(F)c6nc(C)n(C(C)C)c6c5)n4)nc3)CC2)n1`
Output line: > 85%

Input line: So what's the measured activity at 0.01 µM for this one? `CNc1ccc(C(=O)Nc2ccc(N(C)C)nn2)c(NCCNC(=O)CN2CCN(Cc3ccc(Nc4ncc(F)c(-c5cc(F)c6nc(C)n(C(C)C)c6c5)n4)nc3)CC2)n1`
Output line: > 85%

Input line: So what's the measured activity at 0.01 µM for this one? [2H]C([2H])([2H])Nc1ccc(C(=O)Nc2ccc(N(C)C)nn2)c(NC2CC3(C2)CN(C(=O)C(C)N2CCN(Cc4ccc(Nc5ncc6c(C)c(C(C)=O)c(=O)n(C7CCCC7)c6n5)nc4)CC2)C3)n1 (centres unmarked)
Output line: 55 to 85%

Input line: So what's the measured activity at 0.01 µM for this one? `CNc1ccc(C(=O)Nc2ccc(N(C)C)nn2)c(NCCCNC(=O)CN2CCN(c3ccc(Nc4ncc5cc(C(=O)N(C)C)n(C6CCCC6)c5n4)nc3)CC2)n1`
Output line: 55 to 85%

Input line: So what's the measured activity at 0.01 µM for this one? `CNc1ccc(C(=O)Nc2ccc(N(C)C)nn2)c(NCCCCCCC(=O)N2CCN(c3ccc(Nc4ncc5cc(C(=O)N(C)C)n(C6CCCC6)c5n4)nc3)CC2)n1`
Output line: 55 to 85%
